molecular target: Norepinephrine transporter (Rattus norvegicus, UniProt Q9WTR4); experiment: Inhibition of [ring 2,5,6-3H]dopamine reuptake in rat cerebral cortex NET
Sequence (Q9WTR4 whole entry): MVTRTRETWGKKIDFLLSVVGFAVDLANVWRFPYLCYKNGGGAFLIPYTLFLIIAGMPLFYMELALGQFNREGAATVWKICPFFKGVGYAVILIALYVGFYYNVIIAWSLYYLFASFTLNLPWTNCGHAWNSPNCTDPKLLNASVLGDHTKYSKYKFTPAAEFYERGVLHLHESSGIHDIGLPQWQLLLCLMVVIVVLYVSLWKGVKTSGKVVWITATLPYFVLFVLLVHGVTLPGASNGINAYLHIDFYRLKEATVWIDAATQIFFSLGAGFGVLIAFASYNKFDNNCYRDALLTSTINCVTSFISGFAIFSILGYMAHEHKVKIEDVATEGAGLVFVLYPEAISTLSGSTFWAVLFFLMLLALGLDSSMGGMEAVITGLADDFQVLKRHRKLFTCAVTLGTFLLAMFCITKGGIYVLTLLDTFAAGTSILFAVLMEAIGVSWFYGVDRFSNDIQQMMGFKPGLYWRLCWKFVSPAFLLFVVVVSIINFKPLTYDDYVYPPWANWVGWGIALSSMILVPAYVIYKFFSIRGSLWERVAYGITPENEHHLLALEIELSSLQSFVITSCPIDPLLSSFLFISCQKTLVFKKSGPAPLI
pKi: −log10 of the molar value.
Classification field: enter Yes for pKi values not below 8, No for values below it.

O[C@@H]1C[C@@H](C(c2ccc(F)cc2)c2ccc(F)cc2)OC[C@H]1NCc1ccc2occc2c1 No
Oc1cc(O)cc(CN[C@@H]2CO[C@H](C(c3ccccc3)c3ccccc3)C[C@H]2O)c1 No
c1ccc(C(c2ccccc2)[C@@H]2CC[C@H](NCc3ccc4occc4c3)CO2)cc1 No
COc1cc(CN[C@@H]2CO[C@H](C(c3ccc(F)cc3)c3ccc(F)cc3)C[C@H]2O)ccc1O Yes
COc1cccc(CN[C@@H]2CO[C@H](C(c3ccc(F)cc3)c3ccc(F)cc3)C[C@H]2O)c1 No

Kindly determine if pKi recorded for `COc1ccc(CN[C@@H]2CO[C@H](C(c3ccccc3)c3ccccc3)C[C@H]2O)cc1O` is above or exactly 8.
No

Has `COc1cc(O)cc(CN[C@@H]2CO[C@H](C(c3ccc(F)cc3)c3ccc(F)cc3)C[C@H]2O)c1` a recorded pKi greater than or equal to 8?
Yes

Threshold query (pKi >= 8) on `COc1ccc(CN[C@@H]2CO[C@H](C(c3ccccc3)c3ccccc3)C[C@H]2O)cn1`
No

###

molecular target: Norepinephrine transporter (Rattus norvegicus); assay: Inhibition of [ring 2,5,6-3H]dopamine reuptake in rat cerebral cortex NET
# label = t if Ki < 30 nM else f

Some entries whose results are on file:
O[C@@H]1C[C@@H](C(c2ccc(F)cc2)c2ccc(F)cc2)OC[C@H]1NCc1ccc2c(c1)CCO2 t
COc1cccc(CN[C@@H]2CO[C@H](C(c3ccccc3)c3ccccc3)C[C@H]2O)c1 t
COc1cc(CN[C@@H]2CO[C@H](C(c3ccccc3)c3ccccc3)C[C@H]2O)ccc1O f
COc1ccc(CN[C@@H]2CO[C@H](C(c3ccccc3)c3ccccc3)C[C@H]2O)c(F)c1 t
COc1cc(O)cc(CN[C@@H]2CO[C@H](C(c3ccccc3)c3ccccc3)C[C@H]2O)c1 f

Regarding `Oc1ccc(CN[C@@H]2CO[C@H](C(c3ccc(F)cc3)c3ccc(F)cc3)C[C@H]2O)cc1F` , kindly confirm whether its Ki is beneath 30 nM.
t

Dear colleague, could you confirm whether Ki of `COc1ccc(CN[C@@H]2CO[C@H](C(c3ccccc3)c3ccccc3)C[C@H]2O)cc1F` falls below 30 nM? Thanks.
f

Just wondering, is Ki of `O[C@@H]1C[C@@H](C(c2ccc(F)cc2)c2ccc(F)cc2)OC[C@H]1NCc1ccc2c(c1)OCO2` below 30 nM?
t

In plain terms, does `COc1ccc(CN[C@@H]2CO[C@H](C(c3ccc(F)cc3)c3ccc(F)cc3)C[C@H]2O)cn1` come in under 30 nM for Ki?
t

Answer whether the compound `O[C@@H]1C[C@@H](C(c2ccccc2)c2ccccc2)OC[C@H]1NCc1ccc2occc2c1` has Ki strictly less than 30 nM
f

###

target: Sodium-dependent serotonin transporter (Rattus norvegicus, UniProt P31652); experiment: Inhibition of [1,2-3H]serotonin reuptake in rat cerebral cortex SERT
Sequence (P31652 whole entry): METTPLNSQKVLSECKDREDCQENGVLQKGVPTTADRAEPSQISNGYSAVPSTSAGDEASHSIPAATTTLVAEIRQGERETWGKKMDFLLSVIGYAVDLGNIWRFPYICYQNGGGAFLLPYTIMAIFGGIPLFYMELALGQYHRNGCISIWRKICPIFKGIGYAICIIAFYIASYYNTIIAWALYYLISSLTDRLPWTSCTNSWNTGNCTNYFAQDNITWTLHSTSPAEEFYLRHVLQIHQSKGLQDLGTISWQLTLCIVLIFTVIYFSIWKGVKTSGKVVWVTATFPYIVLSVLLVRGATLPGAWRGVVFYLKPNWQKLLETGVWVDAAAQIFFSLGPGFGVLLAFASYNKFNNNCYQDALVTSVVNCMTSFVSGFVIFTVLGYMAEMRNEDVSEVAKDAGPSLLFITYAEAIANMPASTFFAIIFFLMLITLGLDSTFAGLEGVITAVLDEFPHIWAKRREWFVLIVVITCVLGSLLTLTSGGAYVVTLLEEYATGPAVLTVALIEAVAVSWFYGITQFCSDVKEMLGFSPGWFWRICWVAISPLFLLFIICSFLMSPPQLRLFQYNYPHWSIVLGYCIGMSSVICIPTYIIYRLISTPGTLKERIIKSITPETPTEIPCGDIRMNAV
Below, each entry is listed alongside its reported Ki.
Write the value in nM as a bare number.

COc1cc(CN[C@@H]2CO[C@H](C(c3ccccc3)c3ccccc3)C[C@H]2O)ccc1O 223

response.value for `COc1ccc(CN[C@@H]2CO[C@H](C(c3ccccc3)c3ccccc3)C[C@H]2O)cc1F` (field: Ki) = 9.02

The molecule listed as `Oc1ccc(CN[C@H]2CC[C@@H](C(c3ccc(F)cc3)c3ccc(F)cc3)OC2)cc1` shows Ki equal to 334

Recorded Ki (molecule `COc1ccc(CN[C@@H]2CO[C@H](C(c3ccccc3)c3ccccc3)C[C@H]2O)cn1` ): 42.2

For record `COc1ccc(CN[C@@H]2CO[C@H](C(c3ccccc3)c3ccccc3)C[C@H]2O)c(F)c1` the listed Ki is 64

For record `O[C@@H]1C[C@@H](C(c2ccc(F)cc2)c2ccc(F)cc2)OC[C@H]1NCc1ccc2c(c1)OCO2` the listed Ki is 400

###

molecular target: Sodium-dependent dopamine transporter (Rattus norvegicus); test: Inhibition of [ring 2,5,6-3H]dopamine reuptake in rat striatum DAT
ENDPOINT NAME: Ki (µM)
Please respond with the number in µM and leave the unit unwritten.

Study these solved cases before continuing.
Oc1ccc(CN[C@@H]2CO[C@H](C(c3ccc(F)cc3)c3ccc(F)cc3)C[C@H]2O)cc1F 0.0131
COc1ccc(CN[C@@H]2CO[C@H](C(c3ccccc3)c3ccccc3)C[C@H]2O)cc1F 0.0482
COc1ccc(CN[C@@H]2CO[C@H](C(c3ccccc3)c3ccccc3)C[C@H]2O)cn1 0.0441

Below: the item to evaluate.
Entry `COc1ccc(CN[C@@H]2CO[C@H](C(c3ccccc3)c3ccccc3)C[C@H]2O)c(F)c1` — recorded Ki = 0.0518
